Biological target: CCL13 (Homo sapiens)
Sequence (Q99616 17-98, species assumed): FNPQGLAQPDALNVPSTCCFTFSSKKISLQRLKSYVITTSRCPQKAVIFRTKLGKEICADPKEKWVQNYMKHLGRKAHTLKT
Experiment: Chemokine glycan microarray binding assay
Settings: maximum RFU set as 100% binding, average across 2 glycan concentrations and 3 chemokine dilutions (n=6)
REPORTED PROPERTY: mean rank binding to CCL13 (%)

Check out these entries, answers already filled in.
Asked: Recorded mean rank binding to CCL13 for "CC(=O)N[C@H]1[C@@H](O[C@H]2[C@H](O)[C@@H](O)[C@H](OCCCN)O[C@H]2C(=O)O)O[C@H](COP(=O)(O)O)[C@@H](O[C@@H]2O[C@@H](C(=O)O)[C@@H](O[C@H]3O[C@H](COP(=O)(O)O)[C@@H](O)[C@H](O)[C@H]3NC(C)=O)[C@H](O)[C@H]2O)[C@@H]1O" , please?
Given back: 70

Asked: Any idea what mean rank binding to CCL13 was measured for "NCCOCCO[C@@H]1O[C@@H](C(=O)O)[C@@H](O[C@@H]2O[C@@H](C(=O)O)[C@@H](O[C@@H]3O[C@@H](C(=O)O)[C@@H](O[C@@H]4O[C@@H](C(=O)O)[C@@H](OS(=O)(=O)O)[C@H](O)[C@H]4O)[C@H](O)[C@H]3O)[C@H](O)[C@H]2O)[C@H](O)[C@H]1O" ?
Given back: 67

Asked: Quick one: mean rank binding to CCL13 for "NCCOCCO[C@@H]1O[C@@H](C(=O)O)[C@@H](OS(=O)(=O)O)[C@H](O)[C@H]1OS(=O)(=O)O" ?
Given back: 69

Asked: Suppose we examine the compound "NCCOCCO[C@@H]1O[C@@H](C(=O)O)[C@@H](OS(=O)(=O)O)[C@H](O)[C@H]1O" ; what mean rank binding to CCL13 value has been reported?
Given back: 82

Asked: What does the data say about its mean rank binding to CCL13? Entry: "NCCOCCO[C@@H]1O[C@@H](C(=O)O)[C@@H](O[C@@H]2O[C@@H](C(=O)O)[C@@H](OS(=O)(=O)O)[C@H](O)[C@H]2O)[C@H](O)[C@H]1O"
Given back: 81

(P) CC(=O)NC1C(O)[C@H](O)C(CO)O[C@@H]1O[C@@H]1C(C(=O)O)O[C@@H](O[C@@H]2C(CO)O[C@H](O[C@@H]3C(C(=O)O)O[C@@H](OCCCN)C(OS(=O)(=O)O)C3O)C(NC(C)=O)C2O)C(OS(=O)(=O)O)C1O (stereo partly shown)
(Q) NCCCO[C@@H]1OC(C(=O)O)[C@@H](O[C@H]2OC(CO)[C@@H](O[C@@H]3OC(C(=O)O)[C@@H](O[C@H]4OC(CO)[C@@H](O)C(O)C4N)C(O)C3O)C(O)C2N)C(O)C1O (stereo partly shown)
Asked: Recorded mean rank binding to CCL13 values differ for P and Q ; which one is higher? Let me know the label of the one you choose.
Given back: Q
